Here, each record is paired with measured normalized growth data.
assay.procedure: chemical genetic growth profiling, strain panel (AID 1159580);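 note: tested at 20 µM; growth read once vehicle control cultures reached saturation at 30 °C; 1 = growth at the plate median or of vehicle wells; lower values mean less growth of the strain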
experimental.setup: S. cerevisiae deletion strains, growth OD, locus YDL185W, strain tfp1, stronger effect = lower value
The whole screen tested about 5,500 compounds, of which about 2,000 (36%) were called active. About 18% were inconclusive and are not listed. Some of the results follow.
When you answer, write just the number.

Example results:
>  <compound>
C=C1C2CCC3(C)C(c4ccoc4)OC(=O)CC13OC1CC(OC(C)=O)C(C)(C)C(CC(=O)OC)C12C (configuration not stated)

>  <normalized growth>
0.999

$$$$
>  <compound>
O=C(Nc1ccccc1)Nc1ccccc1

>  <normalized growth>
0.99

$$$$
>  <compound>
COc1cc2c(cc1-c1cc3cc4ccoc4cc3oc1=O)OCO2

>  <normalized growth>
0.97

$$$$
>  <compound>
NC(N)=O

>  <normalized growth>
0.983

$$$$

Request: Look up normalized growth for this compound: `O=C(Nc1ccccc1)c1ccccc1O`
Response: 0.927

Request: Look up normalized growth for this compound: COc1c2ccoc2nc2c(OC)c(OCC(O)C(C)(C)O)ccc12 (configuration not stated)
Response: 0.974

----------
assay.procedure: chemical genetic growth profiling, strain panel (AID 1159580)
experimental.setup: S. cerevisiae deletion strains, growth OD, locus YBR009C, strain hhf1, stronger effect = lower value
The campaign covered roughly 5,500 compounds. About 2,000 (36%) were called active. Inconclusive results (about 18%) are left out. Some of the results follow.
Here, each record is paired with measured normalized growth data.
When you answer, write just the number.

>  <compound>
COc1cc(S(C)=O)ccc1-c1nc2ncccc2[nH]1 (configuration not stated)

>  <normalized growth>
0.956

$$$$
>  <compound>
CCCCC[C@H](CC(=O)NO)C(=O)N[C@H](C(=O)N1CCC[C@H]1CO)C(C)C

>  <normalized growth>
1.02

$$$$
>  <compound>
CCC(=O)Nc1ccc(Cl)c(Cl)c1

>  <normalized growth>
0.982

$$$$
>  <compound>
COc1cc(OC)c(OC)cc1C=O

>  <normalized growth>
0.993

$$$$
>  <compound>
COc1cc(C)c(C(=O)Oc2cc(C)c(C(=O)O)c(O)c2C)c(OC)c1C

>  <normalized growth>
0.91

$$$$
>  <compound>
CN(C)N=Nc1nc[nH]c1C(N)=O

>  <normalized growth>
1.02

$$$$

Now, please, on to the next compound.
Request: Look up normalized growth for this compound: `CN(C)C(=O)Nc1ccc(Cl)c(Cl)c1`
Response: 0.926

----------
assay.procedure: chemical genetic growth profiling, strain panel (AID 1159580)
experimental.setup: S. cerevisiae deletion strains, growth OD, locus YNL250W, strain rad50, stronger effect = lower value
Hit rate of the full screen: of about 5,500 compounds, about 2,000 (36%) were called active. Not shown: some 18% with an inconclusive outcome. The list shows a part of the results.
endpoint.name: normalized growth
When you answer, write just the number.

Example results:
>  <molecule>
C[C@H](N)[C@H](O)c1cccc(O)c1

>  <normalized growth>
0.993

$$$$
>  <molecule>
CN[C@@H]1[C@H](OC2[C@H](O[C@H]3[C@H](O)[C@@H](O)[C@H](N=C(N)N)[C@@H](O)[C@@H]3N=C(N)N)O[C@@H](C)[C@]2(O)C=O)O[C@@H](CO)[C@H](O)[C@H]1O (stereo partly drawn)

>  <normalized growth>
1.02

$$$$
>  <molecule>
Cc1cc(O)c(C=O)c2c1C(=O)Oc1c(COC(=O)/C=C/C(=O)O)c(O)c(C(=O)O)c(C)c1O2

>  <normalized growth>
0.956

$$$$
>  <molecule>
CC1CCC2(OC1)OC1CC3C4CCC5C[C@@H](O)CCC5(C)C4=CCC3(C)C1[C@@H]2C (stereo partly drawn)

>  <normalized growth>
0.959

$$$$
>  <molecule>
CC1CC2C3CC(F)C4=CC(=O)C=CC4(C)C3(F)C(O)CC2(C)C1C(=O)COC(=O)C(C)(C)C (stereo not drawn)

>  <normalized growth>
1.01

$$$$

Request: Look up normalized growth for this molecule: `C[C@@H](N)[C@@H](O)c1ccccc1`
Response: 0.992

Request: Look up normalized growth for this molecule: `COc1cc(C(=O)O)c2c(c1C)OC(=O)c1c(C)cc(O)c(C=O)c1O2`
Response: 0.919

Request: Look up normalized growth for this molecule: CC(=O)O[C@H]1CC[C@]2(C)C3=CC(=O)[C@@]4(C)C(C[C@@H]5OC6(OCC(C)CC6Br)[C@@H](C)[C@@H]54)C3CC[C@H]2C1 (stereo partly drawn)
Response: 0.989

----------
assay.procedure: chemical genetic growth profiling, strain panel (AID 1159580);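 note: tested at 20 µM; growth read once vehicle control cultures reached saturation at 30 °C; 1 = growth at the plate median or of vehicle wells; lower values mean less growth of the strain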
experimental.setup: S. cerevisiae deletion strains, growth OD, locus YLR262C, strain YPT6
Screen size: about 5,500 compounds; about 2,000 (36%) were called active. About 18% were inconclusive and are not listed. Cut-off read from the data, not from the text of the source: active = normalized growth mostly below about 0.91 (no sharp cut-off); inconclusive = no clear call, values can overlap the other calls; inactive = mostly above about 0.92. This is one part of the list.
Allowed answers: YES for active, NO for inactive

Request: # lookup: test call for `O=c1cc(-c2cc(O)c(O)c(O)c2)oc2cc(O)cc(O)c12`
Response: NO

Request: # lookup: test call for `COc1ccc(-n2c(-c3ccc(C)cc3)csc2=N)cc1`
Response: NO

Request: # lookup: test call for `CCCCC[C@H](CC(=O)NO)C(=O)N[C@H](C(=O)N1CCC[C@H]1CO)C(C)C`
Response: NO

Request: # lookup: test call for `S=P(N1CC1)(N1CC1)N1CC1`
Response: NO

Request: # lookup: test call for `Cc1cccc(Nc2ccncc2S(=O)(=O)NC(=O)NC(C)C)c1`
Response: NO

Request: # lookup: test call for `NNC(=O)c1ccccc1O`
Response: NO

Request: # lookup: test call for `O=C(Nc1ccccc1)NC1CCCC1`
Response: NO

----------
assay.procedure: chemical genetic growth profiling, strain panel (AID 1159580);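 note: tested at 20 µM; growth read once vehicle control cultures reached saturation at 30 °C; 1 = growth at the plate median or of vehicle wells; lower values mean less growth of the strain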
experimental.setup: S. cerevisiae deletion strains, growth OD, locus YDL101C, strain DUN1, stronger effect = lower value
The campaign covered roughly 5,500 compounds. About 2,000 (36%) were called active. Inconclusive results (about 18%) are left out. The list shows a part of the results.
Here, each record is paired with measured normalized growth data.
When you answer, write just the number.

>  <compound>
Cc1cc(O)c(C=O)c2c1C(=O)Oc1c(C)c(O)c3c(c1O2)C(O)OC3=O (stereo not given)

>  <recorded.measurement>
0.955

$$$$
>  <compound>
Cc1ccc2c(c1)N(CCO)C(C)(C)CC2C (stereo not given)

>  <recorded.measurement>
0.97

$$$$

Request: Look up normalized growth for this compound: CC1C/C(=N/Nc2ccc(Br)cc2)c2cc(Cl)ccc2S1 (stereo not given)
Response: 0.458

Request: Look up normalized growth for this compound: CC1CCC2(OC1)OC1CC3C4CCC5C[C@@H](O)CCC5(C)C4=CCC3(C)C1[C@@H]2C (stereo not given in full)
Response: 0.985

Request: Look up normalized growth for this compound: `Cc1cc(O)c(C)c2c1C(=O)Oc1c(C)c(O)c(C(=O)O)c(C)c1O2`
Response: 0.988

Request: Look up normalized growth for this compound: CCCCCC1C(=O)CCC1CC(=O)O (stereo not given)
Response: 1.01

Request: Look up normalized growth for this compound: CCCCCC1C(=O)CCC1CC(=O)OC (stereo not given)
Response: 1.01

Request: Look up normalized growth for this compound: C=C1C(C2(C)C=CC(=O)C(C)(C)C2CC(=O)OC)CC[C@@]2(C)[C@H](c3ccoc3)OC(=O)C3OC132 (stereo not given in full)
Response: 0.987

Request: Look up normalized growth for this compound: `C=C1[C@H]2CC[C@@]3(C)[C@H](c4ccoc4)OC(=O)C[C@]13O[C@H]1C[C@H](O)C(C)(C)[C@H](CC(=O)OC)[C@]12C`
Response: 1

Request: Look up normalized growth for this compound: `COc1cc(CC/C(C)=N\O)ccc1OCc1ccc(Cl)c(Cl)c1`
Response: 0.975

----------
Here, each record is paired with measured normalized growth data.
assay.procedure: chemical genetic growth profiling, strain panel (AID 1159580);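 note: tested at 20 µM; growth read once vehicle control cultures reached saturation at 30 °C; 1 = growth at the plate median or of vehicle wells; lower values mean less growth of the strain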
experimental.setup: S. cerevisiae deletion strains, growth OD, locus YLR342W, strain FKS1 (second series), stronger effect = lower value
The campaign covered roughly 5,500 compounds. About 2,000 (36%) were called active. Not shown: some 18% with an inconclusive outcome. Some of the results follow.
When you answer, write just the number.

Example results:
>  <molecule>
CCN(CC)CCOC(=O)C(c1ccccc1)c1ccccc1

>  <endpoint.name>
normalized growth

>  <recorded.measurement>
0.988

$$$$
>  <molecule>
CN[C@@H]1[C@H](OC2[C@H](O[C@H]3[C@H](O)[C@@H](O)[C@H](N=C(N)N)[C@@H](O)[C@@H]3N=C(N)N)O[C@@H](C)[C@]2(O)C=O)O[C@@H](CO)[C@H](O)[C@H]1O (stereo partly drawn)

>  <endpoint.name>
normalized growth

>  <recorded.measurement>
1.01

$$$$

Request: Look up normalized growth for this molecule: CC(CCC(=O)O)[C@H]1CCC2C3CC[C@@H]4C[C@H](O)CC[C@]4(C)C3C[C@H](O)[C@@]21C (stereo partly drawn)
Response: 0.983
